Test system: CYP3A4
Assay: Induction of CYP3A4 using HepaRG cells (midazolam metabolizing activity)
Assay type: in vitro ADME
Details: 1 μmol/L test compound, 72 hours, 1'-hydroxymidazolam formation relative to DMSO negative control
# Fold induction per record follows
API doc: respond with a numeric literal and nothing else, no unit.

Below: 4 compounds and their reported Fold induction.
**Query** Give the reported value of Fold induction for this record: CCCS(=O)(=O)Nc1nc2ccccc2nc1OC(c1ccc(-c2noc(C3CC3)n2)nc1)C(F)(F)F (centres unmarked)
**Result** 1.41

**Query** Give the reported value of Fold induction for this record: COCCS(=O)(=O)Nc1nc2ccccc2nc1O[C@H](c1ccc(-c2noc(C3CC3)n2)nc1)C(F)(F)F
**Result** 1.33

**Query** Give the reported value of Fold induction for this record: COCCS(=O)(=O)Nc1nc2ccccc2nc1OC(c1ccc(-c2noc(C)n2)nc1)C(F)(F)F (centres unmarked)
**Result** 1.21

**Query** Give the reported value of Fold induction for this record: CCCS(=O)(=O)Nc1nc2ccccc2nc1O[C@H](c1ccc(-c2noc(C)n2)nc1)C(F)(F)F
**Result** 1.27

Now take the following compound into account.
**Query** Give the reported value of Fold induction for this record: COCCS(=O)(=O)Nc1nc2ccccc2nc1O[C@H](c1ccc(-c2cnco2)nc1)C(F)(F)F
**Result** 1.12
